Origin of values: PubChem BioAssay (NCI)

test system: CCRF-CEM leukemia; experiment: NCI-60 one-dose screen, 48 h (100 = growth as untreated, 0 = no growth, -100 = all killed); conditions: 10 µM
The panel holds about 83,000 compounds, 20% with a hit somewhere; the sample as a whole holds those more often.
assay.readout: growth (%)
Reply numerically in %, unit not repeated.

Recorded growth, per entry:
>>> experimental_value("COc1cccc(C(=O)N(c2ccc(F)c(F)c2)C(C(=O)NC(C)(C)C)c2cc3c(C)cc(C)cc3nc2Cl)c1 (stereo not given)")
53.8
>>> experimental_value("CCOc1nc(-c2ccccc2)cc2c(O)c(C(=O)NCCCO)[nH]c(=O)c12")
68
>>> experimental_value("O=C(c1ccc(Cl)cc1)c1no[n+]([O-])c1C(=O)c1ccc(Cl)cc1")
-51.6
>>> experimental_value("COc1ccc(C(=O)n2nc(CC(=O)NCc3ccccc3)nc2N)cc1")
104

Next compound, please.
### Prompt Consider the compound CCc1cc2n(n1)-c1ncc(C(=O)OC)cc1Oc1ccccc1-2 and give its measured growth.
### Response 95.2

###

Listing of entries alongside the reported growth.
system: HS 578T breast; test: NCI-60 one-dose screen, 48 h (100 = growth as untreated, 0 = no growth, -100 = all killed); settings: 10 µM
This is part of a sample that, as a whole, favours compounds with a hit. Of some 83,000 tested, about 20% had one in any assay.
Reply numerically in %, unit not repeated.

Recorded growth, per entry:
>>> experimental_value("N#C/C(=C/c1cc([N+](=O)[O-])ccc1Cl)C(N)=O")
113
>>> experimental_value("N#Cc1ncc(-c2cc(F)ccc2F)c(NC2CCCCCC2)n1")
58.2
>>> experimental_value("Cc1cc(C(C)(C)CC(C)(C)C)ccc1OCCOCC[N+](C)(C)Cc1ccccc1")
-9.66
>>> experimental_value("O=C1CC(c2cccc(-c3cccnc3)c2)=Nc2ccc(Br)cc2N1")
27.9
>>> experimental_value("CCOC(=O)CSC(=S)SCC(=O)OCC")
106

Next compound, please.
### Prompt Consider the compound COc1cc(OC)cc(N2CCN(C(=O)Nc3nc4cc(F)ccc4nc3OC)CC2)c1 and give its measured growth.
### Response 37.6

###

Tested on: A549/ATCC NSCLC
Assay: NCI-60 one-dose screen, 48 h
Details: 10 µM
Procedure: Growth inhibition of the A549/ATCC human Non-Small Cell Lung tumor cell line is measured as a screen for anti-cancer activity. Cells are grown in 96 well plates and exposed to the test compound for 48 hours. Compounds are tested at a single concentration, which is 10^-5 M for most compounds. The reported endpoint is percent growth (GI% or GIPRCNT), where numbers from 0 - 100% represent growth inhibition, and numbers from -100% - 0 represent cell death. […]
This is part of a sample that, as a whole, favours compounds with a hit. Of some 83,000 tested, about 20% had one in any assay. Active and inactive are the calls of the source. How the source made its calls: active means growth percent below 10; inactive means the rest.
A correct response names exactly one class from y for active, n for inactive

The examples below pair each entry with its known result.
>>> class_assignment("FC(F)(F)c1ccc(-c2ncc(-c3ccc(C(F)(F)F)cc3)c(NCc3cc(C(F)(F)F)cc(C(F)(F)F)c3)n2)cc1")
"n"
>>> class_assignment("O=C(Nc1ccc(OCc2nnc(-c3ccccc3)o2)c(F)c1)Nc1ccc(Cl)c(Cl)c1")
"n"
>>> class_assignment("NC1CCC(Nc2nc(NCc3ccc(-c4cccs4)nc3)c3ncn(C4CCCC4)c3n2)CC1 (stereo not drawn)")
"y"
>>> class_assignment("COc1ccc(S(=O)(=O)Nc2ccc(OCc3nnc(-c4ccc(Cl)cc4)o3)c(F)c2)cc1")
"n"
>>> class_assignment("COc1ccc(-c2nc(NC(=O)CS(=O)(=O)c3ccc(F)cc3)sc2C)cc1")
"n"
>>> class_assignment("COc1cc2ccnc(C=O)c2cc1OC")
"n"
>>> class_assignment("NCCNc1ccc2cc(-c3nc4ccccc4[nH]3)c(=O)oc2c1")
"n"
>>> class_assignment("CCc1ccc(-c2nnc(COc3ccc(-c4nc5ccccc5[nH]4)cc3OC)o2)cc1")
"n"

### Prompt So what was the verdict on O=C(O)c1ccccc1C(=O)c1cccc2c(F)cccc12 in this test?
### Response n

### Prompt So what was the verdict on COc1ccc(-c2cc(=O)n(-c3nc4ccccc4[nH]3)[nH]2)cc1OC in this test?
### Response n

###

tested on: ACHN renal; assay: NCI-60 one-dose screen, 48 h (100 = growth as untreated, 0 = no growth, -100 = all killed); settings: 10 µM
This is part of a sample that, as a whole, favours compounds with a hit. Of some 83,000 tested, about 20% had one in any assay.
Listing of entries alongside the reported growth.
Reply numerically in %, unit not repeated.

>>> experimental_value("CCCc1c(C)nc2scc(-c3ccc(Cl)cc3)n2c1=O")
95.3
>>> experimental_value("CN1CCN(c2nc(-c3cccnc3)nc3sc4c(c23)CCCCCC4)CC1")
89.6
>>> experimental_value("CCCc1c(CC)c(=N)c2ccccc2n1C")
65.8
>>> experimental_value("C=CCn1ccc(=O)nc1SC")
108
>>> experimental_value("O=C(CCl)N1c2ccccc2Sc2ccc3ccccc3c21")
-89.1

### Prompt Hello, I am looking for reported growth with ACHN renal for CCCCCCCCCCSC(=N)N (tested in a mixture with another compound) . Could you help?
### Response 81.1

### Prompt Hello, I am looking for reported growth with ACHN renal for O=C(c1ccc(Cl)cc1)c1no[n+]([O-])c1C(=O)c1ccc(Cl)cc1 . Could you help?
### Response 39.7

### Prompt Hello, I am looking for reported growth with ACHN renal for Oc1ccc(/C=N\Nc2ccccn2)c(O)c1 . Could you help?
### Response 7.03

###

tested on: HCC-2998 colon; assay: NCI-60 one-dose screen, 48 h (100 = growth as untreated, 0 = no growth, -100 = all killed); conditions: 10 µM
This is part of a sample that, as a whole, favours compounds with a hit. Of some 83,000 tested, about 20% had one in any assay.
assay.readout: growth (%)
Reply numerically in %, unit not repeated.

Recorded growth, per entry:
>>> experimental_value("Cc1ccc(S(=O)(=O)Nc2cccc3[nH]c(C(F)(F)F)nc23)cc1")
28.1
>>> experimental_value("Cc1ccc2c(c1)-c1cc(C)nn1-c1ccc(C#N)cc1O2")
90

### Prompt Consider the compound Cc1noc(C)c1-c1ccc2nc(NC(=O)[C@H]3CCN(C#N)C3)cn2c1 and give its measured growth.
### Response 90.4

### Prompt Consider the compound COc1ccc(Cn2cc3c(c2-c2cc(OC)c(OC)c(OC)c2)CCc2cnoc2-3)cc1[N+](=O)[O-] and give its measured growth.
### Response 18

### Prompt Consider the compound CC(C)c1ncc(CO)n1Cc1c(Cl)cccc1Cl and give its measured growth.
### Response 109

###

Listing of entries alongside the reported growth.
test system: NCI/ADR-RES ovarian; test: NCI-60 one-dose screen, 48 h (100 = growth as untreated, 0 = no growth, -100 = all killed); details: 10 µM
This is part of a sample that, as a whole, favours compounds with a hit. Of some 83,000 tested, about 20% had one in any assay.
Reply numerically in %, unit not repeated.

Recorded growth, per entry:
>>> experimental_value("O=C(Nc1ccc(CN2CCOCC2)cc1)c1ccc(-c2cc(Cl)ccc2Cl)o1")
46.9
>>> experimental_value("O=C(Nc1cccc([N+](=O)[O-])c1)NN1CCCCCC1")
91.4
>>> experimental_value("Cc1ccc([P+](Cc2ccc([N+](=O)[O-])cc2)(c2ccc(C)cc2)c2ccc(C)cc2)cc1")
100
>>> experimental_value("COc1cc(NS(C)(=O)=O)ccc1Nc1c2ccc(Cl)cc2nc2c(OC)cccc12")
25.8
>>> experimental_value("CCN1CCOC1C(C)C (stereo unspecified)")
102
>>> experimental_value("O=C(NCc1cn(Cc2cccc(Oc3ccccc3)c2)nn1)c1cccnc1Nc1ccccc1")
23.6
>>> experimental_value("Cc1ccc(/C=C2\\CN(Cc3cn(CCNc4ccnc5cc(Cl)ccc45)nn3)C/C(=C\\c3ccc(C)cc3)C2=O)cc1")
9.21
>>> experimental_value("CCN(Cc1ccccc1)C1CCN(Cc2cc(Br)ccc2O)CC1")
36.1

Next compound, please.
### Prompt Consider the compound C[C@H](NC(=O)[C@@H]1CSSC[C@@H](NC(=O)Cc2nc3ccccc3cc2O)C(=O)NCC(=O)N1C)c1ccccc1 and give its measured growth.
### Response 101

###

system: MOLT-4 leukemia; experiment: NCI-60 one-dose screen, 48 h (100 = growth as untreated, 0 = no growth, -100 = all killed); conditions: 10 µM
This is part of a sample that, as a whole, favours compounds with a hit. Of some 83,000 tested, about 20% had one in any assay.
Lab note: anything with growth at or over 40% counts as Met; the rest go in Not met.

>>> class_assignment("CC(C)(C)c1ccc(OCCCCCCN2CCNCC2)cc1")
"Not met"
>>> class_assignment("COc1cccc(C(=O)NNc2nc(N3CCN(C4CCCCC4)CC3)nc(N3CCN(C(c4ccccc4)c4ccccc4)CC3)n2)c1")
"Not met"
>>> class_assignment("COc1ccc(-c2cc(/C=C/C(=O)c3ccc(N)cc3)[nH]n2)cc1OC")
"Not met"
>>> class_assignment("COc1c(C)c(C)c(OC)c2c1[nH]c(=O)c1c3cccnc3cn21")
"Met"
>>> class_assignment("CC(C)CCN(CCCNc1c2c(nc3cc(Cl)ccc13)CCCC2)CCC(C)C")
"Met"
>>> class_assignment("CS(=O)(=O)Nc1ccc([N+](=O)[O-])cc1Oc1ccccc1")
"Met"

### Prompt Is it the case that CC1=CSC2=NC(c3ccc(Cl)c(Cl)c3)=CC(c3ccc(Cl)cc3)N12 (stereo unspecified) has growth reaching or exceeding 40%?
### Response Not met

### Prompt Is it the case that O/N=C1\CCC2CCCCC2C1 (stereo unspecified) has growth reaching or exceeding 40%?
### Response Met
